Target: mTOR (Homo sapiens, UniProt P42345)
Construct: Jurkat cells were homogenized in a Potter S homogenizer in lysis buffer; endogenous in cells
Assay: mTOR kinobeads assay (Jurkat cell lysate, dot blot detection)
Conditions: read-out: Inhibition values (IC50) mTor
Protocol: The compounds of the present invention as described were tested in the mTOR kinobeads assay as described below. […] Bound proteins were then eluted and the presence of mTOR, PI3K alpha (PI3Kα), PI3K beta (PI3Kb), PI3K gamma (PI3Kg), PI3K delta (PI3Kd) and DNA-dependent protein kinase (DNA-PK) was detected and quantified using a specific antibody in a dot blot procedure and the Odyssey infrared detection system. Dose response curves for individual kinases were generated and IC50 values calculated. […]
Measured IC50 of individual entries

Look over these answered cases.
# Molecule, IC50
records = [
    ("C[C@H]1COCCN1c1nc(-c2ccc(NC(=O)NCCO)cc2)nc(-c2cc(F)ccc2S(C)(=O)=O)n1", "< 100 nM"),
    ("C[C@H]1COCCN1c1nc(-c2ccc(NC(=O)NC3CC3)cc2)nc(-c2cccnc2S(C)(=O)=O)n1", "< 100 nM"),
    ("CNC(=O)Nc1ccc(-c2nc(-c3cccnc3S(C)(=O)=O)nc(N3CCOC[C@@H]3C)n2)cc1", "< 100 nM"),
    ("C[C@H]1COCCN1c1nc(-c2ccc(NC(=O)NCCF)cc2)nc(-c2ccccc2S(C)(=O)=O)n1", "< 100 nM"),
    ("C[C@H]1COCCN1c1nc(-c2ccc(NC(=O)NCCC(N)C(F)(F)F)cc2)nc(-c2ccccc2S(C)(=O)=O)n1 (stereo partly shown)", "1000 to 10000 nM"),
    ("CS(=O)(=O)c1ccc(F)cc1-c1nc(-c2ccc(NC(=O)NC3CC3)cc2)nc(N2CC3CCC(C2)O3)n1", "1000 to 10000 nM"),
]

Okay, now this molecule:
## Input Quick one: give measured IC50 for "C[C@H]1COCCN1c1nc(-c2ccc(NC(=O)NC3CC3)cc2)nc(-c2ccccc2S(=O)(=O)N2CCCC2)n1"
## Output 100 to 1000 nM
